# SYSTEM TESTED: μ-opioid receptors (Homo sapiens (Human))
# ASSAY DETAILS: μ-opioid receptor [35S]GTPγS functional assay, U-2 OS cells
# Type: biochemical
# CONDITION LABEL: μ GTP, read-out: Activity Response μ EC50 (nM) [mean ± SEM]
// returns label 0 unless EC50 is strictly below 2000 nM, in which case label 1

{"columns": ["CHEMICAL STRING", "CLASSIFICATION"],
 "data": [
  ["CC(C)CC(=O)N[C@H]1C[C@@]2(O)[C@H]3Cc4ccc(O)cc4[C@@]2(CCN3CC2CC2)CC1=O", "label 0"],
  ["CCOC(=O)C[C@H]1C[C@@]2(O)[C@H]3Cc4ccc(OC)cc4[C@@]2(CCN3C)CC1=O", "label 0"],
  ["CCCC[C@H]1C[C@@]2(O)[C@H]3Cc4ccc(O)cc4[C@@]2(CCN3CC2CC2)CC1=O", "label 0"],
  ["COc1ccc2c(c1)[C@]13CCN(C)[C@H](C2)[C@]1(O)C[C@H](CC(=O)N1CCC(O)CC1)C(=O)C3", "label 0"],
  ["COc1ccc2c(c1)[C@]13CCN(CC4CC4)[C@H](C2)[C@]1(O)C[C@H](CCO)C(=O)C3", "label 1"],
  ["O=C(N[C@H]1C[C@@]2(O)[C@H]3Cc4ccc(O)cc4[C@@]2(CCN3CC2CC2)CC1=O)C1CCCC1", "label 0"],
  ["O=C1C[C@]23CCN(CC4CC4)[C@H](Cc4ccc(O)cc42)[C@]3(O)C[C@@H]1CCO", "label 1"],
  ["COc1ccc2c(c1)[C@]13CCN(C)[C@H](C2)[C@]1(O)C[C@H](CC(=O)N1CCCC1)C(=O)C3", "label 0"]
]}

IN: Does the reported EC50 of the following compound sit strictly below 2000 nM? "COc1ccc2c(c1)[C@]13CCN(CC4CC4)[C@H](C2)[C@]1(O)C[C@H](OCC(C)C)C(=O)C3"
OUT: label 0

IN: Does the reported EC50 of the following compound sit strictly below 2000 nM? "COc1ccc2c(c1)[C@]13CCN(CC4CC4)[C@H](C2)[C@@H]1C[C@@H](C(C)C)C(=O)C3"
OUT: label 1

IN: Does the reported EC50 of the following compound sit strictly below 2000 nM? "O=C1C[C@]23CCN(CC4CC4)[C@H](Cc4ccc(O)cc42)[C@]3(O)C[C@@H]1CC1CCCCC1"
OUT: label 0

IN: Does the reported EC50 of the following compound sit strictly below 2000 nM? "CC(C)[C@H]1C[C@H]2[C@H]3Cc4ccc(O)cc4[C@@]2(CCN3CC2CC2)CC1=O"
OUT: label 1

IN: Does the reported EC50 of the following compound sit strictly below 2000 nM? "CC(C)CCC(=O)N[C@H]1C[C@@]2(O)[C@H]3Cc4ccc(O)cc4[C@@]2(CCN3CC2CC2)CC1=O"
OUT: label 1

IN: Does the reported EC50 of the following compound sit strictly below 2000 nM? "CN1CC[C@]23CC(=O)[C@@H](CC(=O)O)C[C@@]2(O)[C@H]1Cc1ccc(O)cc13"
OUT: label 1

IN: Does the reported EC50 of the following compound sit strictly below 2000 nM? "CC[C@H](C)C(=O)N[C@H]1C[C@@]2(O)[C@H]3Cc4ccc(O)cc4[C@@]2(CCN3CC2CC2)CC1=O"
OUT: label 0
